The entries below are paired with their reported composite z-score.
- System: Plasmodium falciparum Sir2 (PF13_0152, Sir2A)
- Method notes: Plasmodium falciparum Sir2A binding compounds – biochemical, small-molecule microarray, 635 nm fluorescence, primary screen (AID 1098);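 also: score merges spot fluorescence intensity with its signal-to-noise ratio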
- Condition: fluorescence 635 nm, higher = more signal

INSERT INTO results (molecule, assay_endpoint, test_result) VALUES
  ('CCCCN1CC=CC23O[C@@H]4/C=C\CCCOC(=O)C4[C@H]2C(=O)N(C(CO)C(C)C)[C@@H]3C1=O (some centres undefined)', 'composite z-score', -0.459),
  ('CCCC[C@H]1C[C@@H]1[C@@H]1N(C(C)=O)[C@H](c2cccc(OC)c2)CC12CC2', 'composite z-score', -0.497),
  ('COC(=O)[C@@]1(Cc2ccccc2)[C@H]2c3cc(C(=O)N(C)C)n(Cc4ccc(C(F)(F)F)nc4)c3C[C@H]2CN1C(=O)c1ccccc1', 'composite z-score', 1.52);

Prompt line: Entry `CCOC(=O)C1=CC[C@@H](c2ccc(OC)cc2)N(S(=O)(=O)c2ccc(C)cc2)[C@H]1CC` has what composite z-score?
Response line: 0.469
